target: T1, 4H3843-bN
T1 chain: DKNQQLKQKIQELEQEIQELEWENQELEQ
assay.remarks: two-hybrid library CCNG1;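 also: natural log of median RNA to DNA barcode read ratio; higher means stronger binding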
The following binders are listed with their measured interaction score values.
Number only, no unit.

Using the record for DKIQQLKQEIQELEQEIQELKWKNQELKQ [4H2576-bN] , report its interaction score.
-0.264

How about this binder: DKNQQLKQKIQELEQEIQELEWENQELEQ [4H3843-bN]
-1.58

How about this binder: DENQQLEQKNQELEQKIQELEWKIQELKQ [4H1446-bN]
1.05

How about this binder: DKIQELKKEIEELKRKIWELKKENQELER [4H2667-bH]
1.56

How about this binder: DKIQQLKQEIQELKQKIQELKWENQELEQ [4H2667-bN]
1.5

How about this binder: DEIQQLEQKIQELKQKNQELEWEIQELKQ [4H370-bN]
-0.715

How about this binder: DKIQQLKQEIQELEQKNQELEWEIQELKQ [4H2610-bN]
0.0276

How about this binder: DENQQLEQKIQELEQKIQELKWKNQELKQ [4H1328-bN]
1.16

How about this binder: DKNQQLEQEIQELKQKNQELEWKIQELEQ [4H3189-bN]
-1.81
